Provenance of the data: ChEMBL document CHEMBL1806464

Reported pKi values for a set of compounds
Molecular target: Transmembrane protease serine 11D (Homo sapiens, UniProt O60235)
Sequence (O60235 whole entry): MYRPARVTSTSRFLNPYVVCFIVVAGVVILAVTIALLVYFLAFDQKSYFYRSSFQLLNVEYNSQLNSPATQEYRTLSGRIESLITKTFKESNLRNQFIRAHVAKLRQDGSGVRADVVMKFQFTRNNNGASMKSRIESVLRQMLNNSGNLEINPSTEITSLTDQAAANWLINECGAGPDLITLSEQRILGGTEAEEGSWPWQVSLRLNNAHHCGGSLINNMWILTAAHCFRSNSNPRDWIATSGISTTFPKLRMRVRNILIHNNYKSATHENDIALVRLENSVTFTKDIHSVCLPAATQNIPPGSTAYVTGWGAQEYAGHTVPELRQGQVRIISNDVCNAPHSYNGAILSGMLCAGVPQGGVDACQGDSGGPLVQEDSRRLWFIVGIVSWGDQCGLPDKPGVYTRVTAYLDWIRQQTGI
Test: Inhibition of human recombinant airway trypsin-like protease HAT using D-cyclohexylalanine-Pro-Arg-AMC as substrate by fluorescence plate reader analysis
Expect pKi as a plain number equal to -log10 of the molar concentration.

Answered examples (4):
smiles_structure=[H]/N=C(\N)c1ccc(CNC(=O)[C@@H]2CCCN2C(=O)[C@@H](Cc2ccccc2)NS(=O)(=O)Cc2ccccc2)cc1 val=7.01
smiles_structure=N=C(N)c1ccc(CN[C@@H](CCCCNC(=O)OCc2ccccc2)C(=O)[C@@H](CCCN=C(N)N)NS(=O)(=O)Cc2ccccc2)cc1 val=7.47
smiles_structure=CC(C)C[C@@H](NS(=O)(=O)Cc1ccccc1)C(=O)N1CCC[C@H]1C(=O)NCc1ccc(C(=N)N)cc1 val=6.92
smiles_structure=N=C(N)c1ccc(CNC(=O)[C@@H]2CCCN2C(=O)[C@@H](CCC(=O)N2CCN(c3ncccn3)CC2)NS(=O)(=O)Cc2ccccc2)cc1 val=7.77

Now for the compound whose pKi we want.
pKi reported for this compound CC(C)(C)OC(=O)CC[C@@H](NS(=O)(=O)Cc1ccccc1)C(=O)N1CCC[C@H]1C(=O)NCc1ccc(C(=N)N)cc1 : 7.44
